# studySystem: human orexin type 2 receptor (hOX2R) (Homo sapiens)
# Construct: expressed in transfected cells
# protocolNotes: Measurement of orexin type 2 receptor agonist activity (FLIPR calcium fluorescence)
# Assay type: cell-based
# measurementParameters: CHO, CHO cells expressing hOX2R, FLIPR calcium fluorescence; read-out: hOx2 Emax (%)
observedProperty: Emax

compound: CC(F)C(=O)N1CC2(CC2)C(NS(C)(=O)=O)C1Cc1cccc(-c2ccccc2)c1 (single isomer, unassigned) [Compound 1]
studySystem: human orexin type 2 receptor (hOX2R) (Homo sapiens)
Emax: 70 to 80%

Batch request: Emax for each of the following compounds.
1. CS(=O)(=O)NC1C(Cc2cccc(-c3ccccc3)c2)N(C(=O)C2CC(F)(F)C2)CC12CC2 (racemic) [Compound 12]
2. O=C(NC(CF)CF)N1CC2(CC2)[C@H](NS(=O)(=O)CF)[C@@H]1Cc1cccc(-c2ccccc2)c1F [Compound 369]
3. CC(C)(F)CNC(=O)N1CC2(CC2)[C@H](NS(=O)(=O)CF)[C@@H]1Cc1cccc(-c2ccccc2)c1F [Compound 410]
4. CS(=O)(=O)N[C@@H]1[C@H](Cc2cccc(-c3ccccc3)c2)N(C(=O)C23CC2C3)CC12CC2 (some centres unmarked) [Compound 113]
5. CN(C)S(=O)(=O)N[C@@H]1[C@H](Cc2cccc(-c3ccccc3)c2F)N(C(=O)[C@H](O)C(F)(F)F)CC12CC2 [Compound 119]
6. CS(=O)(=O)N[C@H]1[C@@H](Cc2cccc(-c3cc(F)cc(F)c3)c2F)N(C(=O)N2CCC2)CC12CC2 [Compound 31]
7. COCCNC(=O)N1CC2(CC2)[C@H](NS(=O)(=O)CF)[C@@H]1Cc1cccc(-c2ccccc2)c1F [Compound 357]
8. C[C@H](O)CN(C)C(=O)N1CC2(CC2)[C@H](NS(C)(=O)=O)[C@@H]1Cc1cccc(-c2ccccc2)c1F [Compound 323]

Reply:
1. 80 to 90%
2. 90 to 100%
3. 90 to 100%
4. 90 to 100%
5. 90 to 100%
6. 90 to 100%
7. 90 to 100%
8. 90 to 100%

Batch request: Emax for each of the following compounds.
1. CC(C)C(=O)N1CC2(CC2)C(NS(=O)(=O)CF)C1Cc1cccc(-c2ccccc2)c1 (racemic) [Compound 36]
2. CN(CC1CC1)C(=O)N1CC2(CC2)[C@H](NS(C)(=O)=O)[C@@H]1Cc1cccc(-c2ccccc2)c1F [Compound 332]
3. COCCNC(=O)N1CC2(CC2)[C@H](NS(C)(=O)=O)[C@@H]1Cc1cccc(-c2ccccc2)c1F (racemic) [Compound 306]
4. O=C([C@H]1CCO1)N1CC2(CC2)[C@H](NS(=O)(=O)C2CC2)[C@@H]1Cc1cccc(-c2ccccc2)c1 [Compound 42]

Reply:
["90 to 100%", "90 to 100%", "90 to 100%", "90 to 100%"]

Query: Query for human orexin type 2 receptor (hOX2R) (Homo sapiens): what Emax does the record show for C[C@@H](NC(=O)N1CC2(CC2)[C@H](NS(=O)(=O)CF)[C@@H]1Cc1cccc(-c2ccccc2)c1F)C(F)(F)F [Compound 209] ?
Reply: 90 to 100%

---

Record form. Attribute: EC50. Fill in for each entry.
# studySystem: human orexin type 2 receptor (hOX2R) (Homo sapiens)
# Construct: expressed in transfected cells
# Sequence (O43614 1-444): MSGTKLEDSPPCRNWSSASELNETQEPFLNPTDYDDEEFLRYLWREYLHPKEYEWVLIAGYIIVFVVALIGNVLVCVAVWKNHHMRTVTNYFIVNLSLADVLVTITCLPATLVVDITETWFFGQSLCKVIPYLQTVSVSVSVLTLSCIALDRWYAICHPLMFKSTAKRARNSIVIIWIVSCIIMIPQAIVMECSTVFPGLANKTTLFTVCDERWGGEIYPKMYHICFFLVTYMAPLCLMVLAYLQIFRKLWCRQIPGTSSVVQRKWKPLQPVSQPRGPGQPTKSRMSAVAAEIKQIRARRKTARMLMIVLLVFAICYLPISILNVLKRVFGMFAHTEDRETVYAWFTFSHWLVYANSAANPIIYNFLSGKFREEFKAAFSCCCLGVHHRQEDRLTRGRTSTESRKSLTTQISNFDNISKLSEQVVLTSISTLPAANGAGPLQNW
# protocolNotes: Measurement of orexin type 2 receptor agonist activity (FLIPR calcium fluorescence)
# Assay type: cell-based
# measurementParameters: CHO cells expressing hOX2R, FLIPR calcium fluorescence; read-out: hOx2 pEC50 (converted)

Consider the following illustrative entries.
compound: N#CC1(C(=O)N2CC3(CC3)[C@H](NS(=O)(=O)CF)[C@@H]2Cc2cccc(-c3ccccc3)c2F)CCC1
EC50: 1 to 10 nM
//
compound: CCS(=O)(=O)N[C@@H]1[C@H](Cc2cccc(-c3cccc(F)c3)c2F)N(C(=O)C(C)(C)O)CC12CC2
EC50: 1 to 10 nM
//
compound: CCS(=O)(=O)N[C@@H]1[C@H](Cc2cccc(-c3cc(F)cc(F)c3)c2F)N(C(=O)[C@H]2CCO2)CC12CC2
EC50: 0.0794 to 1 nM
//
compound: C[C@H](F)CNC(=O)N1CC2(CC2)[C@H](NS(=O)(=O)CF)[C@@H]1Cc1cccc(-c2ccccc2)c1F
EC50: 1 to 10 nM

Batch request: EC50 for each of the following compounds.
1. CCS(=O)(=O)NC1C(Cc2cccc(-c3ccccc3)c2)N(C(=O)N2CCC2)CC12CC2 (racemic)
2. CN(C)C(=O)N1CC2(CC2)[C@H](NS(C)(=O)=O)[C@@H]1Cc1cccc(-c2ccccc2)c1F
3. C[C@H](F)C(=O)N1CC2(CC2)[C@H](NS(=O)(=O)CF)[C@@H]1Cc1cc(F)cc(-c2cccc(F)c2)c1F
4. CCNC(=O)N1CC2(CC2)C(NS(=O)(=O)CC)C1Cc1cccc(-c2ccccc2)c1F (racemic)
5. CCS(=O)(=O)N[C@@H]1[C@H](Cc2cccc(-c3ccccc3)c2F)N(C(=O)[C@H](O)COC)CC12CC2
6. C[C@H](F)CNC(=O)N1CC2(CC2)[C@H](NS(C)(=O)=O)[C@@H]1Cc1cccc(-c2ccccc2)c1F

Reply:
["1 to 10 nM", "0.0794 to 1 nM", "1 to 10 nM", "0.0794 to 1 nM", "1 to 10 nM", "0.0794 to 1 nM"]
